Recorded values, source patent US20190225691A1.

Can you tell me koff for the items I'm about to list?
biological target: T1, human PD-L1 ECD-His (human, UniProt Q9NZQ7 19-238); assay: SPR, hPD-L1-His, PL3 variants
T1 construct: extracellular domain; Analyte in all SPR and BLI runs; also called hPD-L1_ECD-His; hPD-L1 ECD-His; not shown: His tag
T1 sequence (Q9NZQ7 19-238): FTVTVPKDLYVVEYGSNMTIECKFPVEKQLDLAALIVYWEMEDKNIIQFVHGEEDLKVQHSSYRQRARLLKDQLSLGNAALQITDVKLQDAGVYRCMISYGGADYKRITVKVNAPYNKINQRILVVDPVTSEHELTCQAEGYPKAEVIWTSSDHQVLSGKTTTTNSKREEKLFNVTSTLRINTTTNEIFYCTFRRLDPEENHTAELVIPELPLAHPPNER
Numbers only, in s⁻¹.

Use these answered entries as a reference point.
Lookup result for PL3#1 mtIgG1 (N297A) (antibody, V domains shown, N297A mutant human IgG1) VH: QVQLVQSGAEVKKPGSSVKVSCKASGGTFSSYRISWVRQAPGQGLEWMGRIIPILGIANYAQKFQGRVTITADKSTSTAYMELSSLRSEDTAVYYCARSRDGYSVGAFDSWGQGTLVTVSS VL: QSVVTQPPPVSGAPGQRVTISCTGSSSNIGAGYDVHWYQQLPGTAPKLLIYGNSRRPSGVPDRFSGSKSGTSASLAITGLQAEDEADYYCQTYDSSLSRPVVFGGGTKLTVL ; measured koff: 0.000395

Form: binder = PL3#7 IgG1 (antibody, V domains shown, Human IgG1) VH: QVQLVQSGAEVKKPGSSVKVSCKASGGTFSSYPISWVRQAPGQGLEWIGRIIPILGIANYAQKFQGRVTITADKSTSTAYMELSSLRSEDTAVYYCARSRDGYAFGAFDIWGQGTLVTVSS VL: QSVVTQPPPVSGAPGQRVTISCTGSSSNIGAGYDVHWYQQLPGTAPKLLIYGNSNRPSGVPDRFSGSKSGTSASLAITGLQAEDEADYYCQTYDSSLSARVVFGGGTKLTVL ; koff = 0.000444

Further cases:
Measured koff, PL3#1 IgG2 (antibody, V domains shown, Human IgG2) VH: QVQLVQSGAEVKKPGSSVKVSCKASGGTFSSYRISWVRQAPGQGLEWMGRIIPILGIANYAQKFQGRVTITADKSTSTAYMELSSLRSEDTAVYYCARSRDGYSVGAFDSWGQGTLVTVSS VL: QSVVTQPPPVSGAPGQRVTISCTGSSSNIGAGYDVHWYQQLPGTAPKLLIYGNSRRPSGVPDRFSGSKSGTSASLAITGLQAEDEADYYCQTYDSSLSRPVVFGGGTKLTVL : 0.00067
